Test system: mice with bleomycin-induced pulmonary fibrosis
Experiment: Hydroxyproline content in lung of mice with pulmonary fibrosis
Format: in vivo, C57BL/6 mice
Conditions: Table 3 groups, 2 mg/kg i.p.; left lung lobes; chloramine-T method
Protocol: Male C57BL/6 mice were fasted overnight, then anesthetized with 45 mg/kg sodium pentobarbital by injection intraperitoneally (i.p.), and intratracheally injected with bleomycin at a dose of 3 U/kg. […] Hydroxyproline accounts for 13.4% (w/w) of collagen, and extremely small amount of elastin, while it is absent in other proteins. […] The content of hydroxyproline in the lobes of left lung of the animals was measured 28 days later, and the condition of pulmonary fibrosis was evaluated. […]
Bridge positions count the residues as written; N and C are the ends. Square brackets hold non-standard residues; d marks the D form. Peptide text beside a SMILES is read from it. S5 = C=CCCC[C@](C)(N)C(=O)O
Provide the recorded hydroxyproline content (μg/mg protein) for the entries that follow.
Express your answer in μg/mg protein, writing the number without its unit.

Task: Give the value of hydroxyproline content (μg/mg protein) reported for the following: CSCC[C@H](NC(=O)[C@H](CC(C)C)NC(=O)[C@@H](N)Cc1c[nH]cn1)C(=O)N[C@@H](C)C(=O)N[C@@H](CS)C(=O)N[C@@H](Cc1ccccc1)C(=O)N[C@H](C(=O)N[C@@H](CS)C(=O)N[C@@H](C)C(=O)N[C@@H](CCCCN)C(=O)N[C@@H](CCCCN)C(=O)N[C@@H](CC(C)C)C(=O)N[C@@H](CCCCN)C(=O)N[C@@H](CCCCN)C(=O)N[C@@H](CCCNC(=N)N)C(=O)O)[C@@H](C)O [MR2] (H-HLMACFTCAKKLKKR-OH; N-terminus and C-terminus assumed)
Output: 0.9087

Task: Note hydroxyproline content (μg/mg protein) for the molecule shown: CSCC[C@H](NC(=O)[C@H](CC(C)C)NC(=O)[C@@H](N)Cc1c[nH]cn1)C(=O)N[C@@H](C)C(=O)N[C@@H](CS)C(=O)N[C@@H](Cc1ccccc1)C(=O)N[C@H](C(=O)N[C@@H](CS)C(=O)N[C@@]1(C)CCCC=CCCC[C@@](C)(C(=O)N[C@@H](CCCCN)C(=O)N[C@@H](CCCNC(=N)N)C(=O)O)NC(=O)[C@H](CC(C)C)NC(=O)[C@H](CCCCN)NC(=O)[C@H](CCCCN)NC1=O)[C@@H](C)O [S9] (H-HLMACFTC[S5]KKL[S5]KR-OH; staple 9-13; N-terminus and C-terminus assumed)
Output: 0.7212

Task: Identify hydroxyproline content (μg/mg protein) associated with the molecule CSCC[C@H](NC(=O)[C@H](CC(C)C)NC(=O)[C@@H](N)Cc1c[nH]cn1)C(=O)N[C@@H](C)C(=O)N[C@@H](CS)C(=O)N[C@@]1(C)CCCC=CCCC[C@@](C)(C(=O)N[C@@H](CCCCN)C(=O)N[C@@H](CC(C)C)C(=O)N[C@@H](CCCCN)C(=O)N[C@@H](CCCCN)C(=O)N[C@@H](CCCNC(=N)N)C(=O)O)NC(=O)[C@H](C)NC(=O)[C@H](CS)NC(=O)[C@H]([C@@H](C)O)NC1=O [S6] (H-HLMAC[S5]TCA[S5]KLKKR-OH; staple 6-10; N-terminus and C-terminus assumed)
Output: 0.8337

Task: For the molecule CSCC[C@H](NC(=O)[C@H](CC(C)C)NC(=O)[C@@H](N)Cc1c[nH]cn1)C(=O)N[C@@H](C)C(=O)N[C@@]1(C)CCCC=CCCC[C@@](C)(C(=O)N[C@@H](CCCCN)C(=O)N[C@@H](CCCCN)C(=O)N[C@@H](CC(C)C)C(=O)N[C@@H](CCCCN)C(=O)N[C@@H](CCCCN)C(=O)N[C@@H](CCCNC(=N)N)C(=O)O)NC(=O)[C@H](CS)NC(=O)[C@H]([C@@H](C)O)NC(=O)[C@H](Cc2ccccc2)NC1=O [S5] (H-HLMA[S5]FTC[S5]KKLKKR-OH; staple 5-9; N-terminus and C-terminus assumed) , give its measured hydroxyproline content (μg/mg protein) value.
Output: 0.6575
